For each entry below, report its inhibition at 1 µM value.
target: hERG channel (Homo sapiens); construct: host or cells: CHO cells, stably transfected; experiment: hERG assay, whole cell recordings in CHO cells (AVIVA); assay type: cell-based; details: CHO cells stably expressing hERG, pH 7.4
Sequence (Q12809 whole entry): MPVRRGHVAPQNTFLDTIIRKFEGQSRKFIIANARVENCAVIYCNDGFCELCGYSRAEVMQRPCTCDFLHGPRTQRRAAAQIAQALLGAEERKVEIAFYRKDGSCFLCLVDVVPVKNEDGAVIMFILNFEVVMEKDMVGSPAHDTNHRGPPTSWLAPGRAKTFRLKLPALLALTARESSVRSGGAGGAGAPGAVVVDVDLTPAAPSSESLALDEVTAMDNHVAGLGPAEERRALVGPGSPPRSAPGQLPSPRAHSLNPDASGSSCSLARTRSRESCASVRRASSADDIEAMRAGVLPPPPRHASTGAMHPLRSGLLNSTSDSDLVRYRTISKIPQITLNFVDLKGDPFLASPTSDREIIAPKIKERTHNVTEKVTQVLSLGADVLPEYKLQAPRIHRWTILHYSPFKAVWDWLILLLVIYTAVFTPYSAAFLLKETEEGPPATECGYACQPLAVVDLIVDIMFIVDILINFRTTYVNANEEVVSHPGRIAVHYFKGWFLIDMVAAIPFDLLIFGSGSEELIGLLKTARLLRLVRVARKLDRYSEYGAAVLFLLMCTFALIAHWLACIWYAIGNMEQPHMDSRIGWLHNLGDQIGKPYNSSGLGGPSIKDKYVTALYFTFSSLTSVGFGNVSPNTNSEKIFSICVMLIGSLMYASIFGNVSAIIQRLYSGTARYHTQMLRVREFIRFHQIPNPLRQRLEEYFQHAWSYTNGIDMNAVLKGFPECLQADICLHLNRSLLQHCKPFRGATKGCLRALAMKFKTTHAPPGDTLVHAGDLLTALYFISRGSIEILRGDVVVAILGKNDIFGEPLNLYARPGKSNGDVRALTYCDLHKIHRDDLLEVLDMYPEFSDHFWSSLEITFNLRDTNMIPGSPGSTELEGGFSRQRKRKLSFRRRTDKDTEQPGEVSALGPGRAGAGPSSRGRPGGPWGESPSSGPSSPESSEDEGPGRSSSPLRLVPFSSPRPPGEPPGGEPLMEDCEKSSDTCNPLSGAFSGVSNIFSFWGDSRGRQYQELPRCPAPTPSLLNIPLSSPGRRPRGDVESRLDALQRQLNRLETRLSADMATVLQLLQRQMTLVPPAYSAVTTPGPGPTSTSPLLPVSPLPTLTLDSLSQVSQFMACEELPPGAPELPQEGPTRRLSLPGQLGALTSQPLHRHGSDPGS
Give the value, in units of %, as a plain number.

Task: Param readout = inhibition at 1 µM; param system = hERG channel (Homo sapiens); param query = CCCOc1ccc(CNC(=O)N(Cc2ccc(F)cc2F)C2CCNCC2)cc1 ; response: value
Output: 12

Task: Subsequent entry: COc1ccc(CNC(=O)N(Cc2ccc(F)cc2F)C2CCN(C)CC2)cc1
Output: 17

Task: Would you kindly repeat that for Cc1cc(CNC(=O)N(Cc2ccc(F)cc2F)C2CCN(C)CC2)ccc1OC(C)C ?
Output: 39

Task: Follow-up item: Cc1noc2cc(CNC(=O)N(Cc3ccc(F)cc3F)C3CCN(C)CC3)ccc12
Output: 10

Task: Also check CN1CCC(N(Cc2ccc(F)cc2F)C(=O)NCc2ccc3occc3c2)CC1
Output: 30

Task: Try the molecule CN1CCC(N(Cc2ccc(F)cc2F)C(=O)NCc2ccc(C(C)(F)F)cc2)CC1
Output: 38

Task: Let us now turn to CC(C)COc1ccc(CNC(=O)N(Cc2ccc(F)cc2F)C2CCN(C)CC2)cc1
Output: 33

Task: Now the molecule CN1CCC(N(Cc2ccc(F)cc2F)C(=O)NCc2ccc3c(c2)C=CC(C)(C)O3)CC1
Output: 47

Task: Now this one: COc1cc(F)c(F)cc1CN(C(=O)NCc1ccc(OC(C)C)cc1)C1CCN(C)CC1
Output: 13

Task: How about CC(C)COc1ccc(CNC(=O)N(Cc2ccc(F)cc2F)C2CCNCC2)cc1 ?
Output: 11
